- target_system: human delta-like ligand 3 (DLL3) on SHP77 cells (human) (UniProt Q9NYJ7)
- Sequence (Q9NYJ7 27-618, stated change not applied): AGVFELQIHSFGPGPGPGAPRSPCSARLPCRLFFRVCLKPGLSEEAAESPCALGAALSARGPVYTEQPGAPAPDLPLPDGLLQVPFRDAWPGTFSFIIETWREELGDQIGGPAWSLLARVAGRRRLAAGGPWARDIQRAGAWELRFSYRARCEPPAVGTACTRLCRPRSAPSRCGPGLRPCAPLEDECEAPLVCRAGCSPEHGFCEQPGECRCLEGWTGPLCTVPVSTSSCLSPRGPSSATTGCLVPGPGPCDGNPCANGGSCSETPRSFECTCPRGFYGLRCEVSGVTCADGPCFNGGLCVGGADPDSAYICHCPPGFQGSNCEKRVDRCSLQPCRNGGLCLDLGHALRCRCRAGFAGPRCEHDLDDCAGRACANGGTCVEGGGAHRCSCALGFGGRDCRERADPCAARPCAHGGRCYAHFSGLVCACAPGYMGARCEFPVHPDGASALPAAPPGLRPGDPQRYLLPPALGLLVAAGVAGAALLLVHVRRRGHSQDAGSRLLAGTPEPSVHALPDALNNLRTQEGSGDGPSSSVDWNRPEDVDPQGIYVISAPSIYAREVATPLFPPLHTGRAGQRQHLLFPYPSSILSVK
- assay_summary: FACS on SHP77 cells
endpoint_label: MFI at 0.16 nM

1. Hab015VL4VH1b-hFc (scFv, part only; not given: VL-VH linker and human IgG1 Fc, V domains shown, not shown: another chain or arm of the molecule; a dimerising Fc or GST; small tags and cut ends) VL: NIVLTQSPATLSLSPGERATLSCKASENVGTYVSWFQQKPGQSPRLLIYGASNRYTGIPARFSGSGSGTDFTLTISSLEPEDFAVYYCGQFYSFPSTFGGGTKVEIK VH: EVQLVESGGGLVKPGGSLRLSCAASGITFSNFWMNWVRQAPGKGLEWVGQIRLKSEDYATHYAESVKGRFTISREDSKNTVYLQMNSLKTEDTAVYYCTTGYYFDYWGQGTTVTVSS ... 371 MFI
2. Hab015VL4VH6a-hFc (scFv, part only; not given: scFv linker and human IgG1 Fc, V domains shown, not shown: another chain or arm of the molecule; a dimerising Fc or GST; small tags and cut ends) VL: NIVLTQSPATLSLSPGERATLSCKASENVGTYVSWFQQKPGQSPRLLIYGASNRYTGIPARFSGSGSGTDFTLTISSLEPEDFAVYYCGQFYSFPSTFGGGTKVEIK VH: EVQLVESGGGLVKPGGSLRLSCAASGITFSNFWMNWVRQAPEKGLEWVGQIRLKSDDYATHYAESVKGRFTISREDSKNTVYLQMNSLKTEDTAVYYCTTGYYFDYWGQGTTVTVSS ... 361 MFI
3. Hab015VL4VH5a-hFc (scFv, part only; not given: VL-VH linker and human IgG1 Fc, V domains shown, not shown: another chain or arm of the molecule; a dimerising Fc or GST; small tags and cut ends) VL: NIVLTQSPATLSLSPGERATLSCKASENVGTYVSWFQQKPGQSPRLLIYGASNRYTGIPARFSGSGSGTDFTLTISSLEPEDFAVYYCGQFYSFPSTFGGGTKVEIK VH: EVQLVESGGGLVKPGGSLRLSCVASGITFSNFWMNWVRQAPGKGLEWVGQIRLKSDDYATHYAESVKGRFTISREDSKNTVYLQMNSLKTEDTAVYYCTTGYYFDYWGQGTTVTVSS ... 368 MFI
